assay: Intrinsic clearance in rat liver microsomes at 3 uM; assay type: ADME, Microsome; conditions: read-out: CLH
propertyMeasured: microsomal CLint at 3 µM
Lab note: write values as number then unit, every time.

The following compounds have reported results that may help.
CCCCCCCCn1cc(CN(CC)CC)c2cc(-c3cnc(N)nc3)ccc21 204 µL/min/mg
CCCCCCCCn1cc(CN(CC)CC)c2cc(-c3cccc(C)c3)ccc21 85.8 µL/min/mg

Now look at this entry.
[in] # return recorded microsomal CLint at 3 µM for input CCCCCCCCn1cc(CC(N)=O)c2cc(-c3cccc(C)c3)ccc21
[out] 53.6 µL/min/mg
